assay: chemical genetic growth profiling, strain panel (AID 1159580);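 also: tested at 20 µM; growth read once vehicle control cultures reached saturation at 30 °C; 1 = growth at the plate median or of vehicle wells; lower values mean less growth of the strain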; details: S. cerevisiae deletion strains, growth OD, locus YJL157C, strain FAR1, hits give low values
About 2,000 (36%) of roughly 5,500 compounds were called active. Inconclusive results (about 18%) are left out. The list shows a part of the results.
Please assign 0 whenever normalized growth is at or above 0.9, and 1 whenever it is below.

Exercise: Please let me know if `Cc1ccc(NC(=O)c2ccccc2N=Cc2cc(Cl)cc(Cl)c2O)c(N=Cc2cc(Cl)cc(Cl)c2O)c1` shows normalized growth below 0.9.
Key: 1

Exercise: Please let me know if `CC(C)(C)c1ccc(C(=O)Nc2ccc(C(F)(F)F)cc2)s1` shows normalized growth below 0.9.
Key: 0

Exercise: Please let me know if `OC(=Cc1nc2ccccc2nc1C=C(O)c1ccc(Cl)cc1)c1ccc(Cl)cc1` shows normalized growth below 0.9.
Key: 1

Exercise: Please let me know if `CC(=O)Nc1ccc(S(=O)(=O)Nc2ccccc2Oc2ccc(Cl)cc2Cl)cc1` shows normalized growth below 0.9.
Key: 0

* * *

experiment: chemical genetic growth profiling, strain panel (AID 1159580); conditions: S. cerevisiae deletion strains, growth OD, locus YML032C, strain rad52, hits give low values
The campaign covered roughly 5,500 compounds. About 2,000 (36%) were called active. Roughly 18% stayed inconclusive and do not appear here. The list shows a part of the results.
Please go through the items and note down their normalized growth.

Exercise: Data request, read-out normalized growth, for CC(C)C(C)/C=C/C(C)[C@H]1CCC2C3=CCC4CC(=O)CC[C@]4(C)C3CC[C@@]21C (stereo not given in full)
Key: 1 (inactive)

Exercise: Data request, read-out normalized growth, for C=CCCCCCCCCCCCC(O)CC(O)COC(C)=O (stereo not given) (tested in a mixture with another compound)
Key: 0.88 (active)

Exercise: Data request, read-out normalized growth, for `CO/N=C(\C(=O)N[C@@H]1C(=O)N2C(C(=O)O)=C(COC(C)=O)CS[C@H]12)c1csc(N)n1`
Key: 0.993 (inactive)

Exercise: Data request, read-out normalized growth, for `Cc1ccc(C)c(OCCCC(C)(C)C(=O)O)c1`
Key: 0.847 (active)

Exercise: Data request, read-out normalized growth, for `COc1c2ccoc2c(OC)c2oc(=O)ccc12`
Key: 0.951 (inactive)

Exercise: Data request, read-out normalized growth, for `CC(=O)OCC[C@H](C)CCC=C(C)C`
Key: 1.03 (inactive)

Exercise: Data request, read-out normalized growth, for CO/N=C(\C(=O)NC1C(=O)N2C(C(=O)O)=C(COC(N)=O)CSC12)c1ccco1 (stereo not given)
Key: 0.0647 (active)

Exercise: Data request, read-out normalized growth, for `CO/N=C(\C(=O)N[C@@H]1C(=O)N2C(C(=O)O)=C(CSc3nc(=O)c(O)nn3C)CS[C@H]12)c1csc(N)n1`
Key: 1.02 (inactive)

Exercise: Data request, read-out normalized growth, for `Cc1cc(-c2ccccc2)nnc1NCCN1CCOCC1`
Key: 0.974 (inactive)

Exercise: Data request, read-out normalized growth, for `COc1c(OC)c2occc2c2oc(=O)ccc12`
Key: 0.915 (inactive)

* * *

assay: chemical genetic growth profiling, strain panel (AID 1159580);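 also: tested at 20 µM; growth read once vehicle control cultures reached saturation at 30 °C; 1 = growth at the plate median or of vehicle wells; lower values mean less growth of the strain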; details: S. cerevisiae deletion strains, growth OD, locus YMR219W, strain ESC1
In all, about 5,500 compounds went through this assay and about 2,000 (36%) were called active. Inconclusive results (about 18%) are left out. No stated cut-off is given here; in the data, active means normalized growth mostly below about 0.91 (no sharp cut-off); inconclusive means no clear call, values can overlap the other calls; inactive means mostly above about 0.92. The list shows a part of the results.
Answer with one of the outcomes 1 = active, -1 = inactive

Exercise: // outcome(item) with item = `CC(=O)CC(=O)Nc1ccccc1Cl`
Key: -1

Exercise: // outcome(item) with item = `N#C/C(=C\c1cccn1-c1ccc(OC(F)(F)F)cc1)S(=O)(=O)c1ccccc1`
Key: -1

Exercise: // outcome(item) with item = `Cc1ccc(NC(=S)NCCO)c(C)c1`
Key: -1

Exercise: // outcome(item) with item = `CCCc1cnc(N2CCCN(C(=S)Nc3cccnc3)CC2)nc1`
Key: -1

Exercise: // outcome(item) with item = OC(CN1CCN(c2nc3ccc(Cl)cc3s2)CC1)CN1CCCN(c2ncc(C(F)(F)F)cc2Cl)CC1 (configuration not stated)
Key: -1

Exercise: // outcome(item) with item = `Clc1cccc(NC2=NCCS2)c1Cl`
Key: -1

Exercise: // outcome(item) with item = `Cc1onc(-c2c(Cl)cccc2Cl)c1C(=O)Oc1ccc(Cl)c(Cl)c1`
Key: -1

Exercise: // outcome(item) with item = `Cc1cccc2c1N(C(=S)Nc1ccccc1Cl)CCC2`
Key: 1

Exercise: // outcome(item) with item = `COCCCNC(=S)Nc1ccc(C)cc1C`
Key: -1

Exercise: // outcome(item) with item = `Cc1ccc(-n2cccc2)c(NC(=S)Nc2ccc(Br)cc2OC(F)(F)F)c1`
Key: -1

Exercise: // outcome(item) with item = `CSC(=NC#N)N1CCN(c2ccc([N+](=O)[O-])cn2)CC1`
Key: -1

Exercise: // outcome(item) with item = `Cc1ccc(NS(C)(=O)=O)cc1N=Cc1ccc(Cl)c(Cl)c1`
Key: -1

* * *

assay: chemical genetic growth profiling, strain panel (AID 1159580);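 also: tested at 20 µM; growth read once vehicle control cultures reached saturation at 30 °C; 1 = growth at the plate median or of vehicle wells; lower values mean less growth of the strain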; settings: S. cerevisiae deletion strains, growth OD, locus YDR159W, strain sac3
Screen size: about 5,500 compounds; about 2,000 (36%) were called active. Inconclusive results (about 18%) are left out. No stated cut-off is given here; in the data, active means normalized growth mostly below about 0.91 (no sharp cut-off); inconclusive means no clear call, values can overlap the other calls; inactive means mostly above about 0.92. Some of the results follow.
Answer with one of the outcomes active, inactive

Exercise: // outcome(item) with item = CC(=O)OCC(OC(C)=O)C(OC(C)=O)C(OC(C)=O)C(OC(C)=O)C(COC(C)=O)OC(C)=O (stereo unspecified)
Key: inactive

Exercise: // outcome(item) with item = `Cc1ccc(Cl)c(Nc2ccccc2C(=O)O)c1Cl`
Key: active

Exercise: // outcome(item) with item = `Nc1nc2ncc(=O)[nH]c2c(=O)[nH]1`
Key: inactive

Exercise: // outcome(item) with item = C=CCCCCCCCCCCCC(O)CC(O)COC(C)=O (stereo unspecified) (tested in a mixture with another compound)
Key: inactive

Exercise: // outcome(item) with item = CC(C)NCC(O)c1cc(O)cc(O)c1 (stereo unspecified)
Key: inactive

Exercise: // outcome(item) with item = `NC(N)=NS(=O)(=O)c1ccc(N)cc1`
Key: inactive

Exercise: // outcome(item) with item = `OCCOCCN1CCN(C2=Nc3ccccc3Sc3ccccc32)CC1`
Key: inactive

Exercise: // outcome(item) with item = `Cc1cccc(Nc2ccccc2C(=O)O)c1C`
Key: inactive

Exercise: // outcome(item) with item = `CC(=O)OCC[C@H](C)CCC=C(C)C`
Key: inactive

Exercise: // outcome(item) with item = C#CCCCCCCCCCCCC(O)CC(O)CO (stereo unspecified)
Key: inactive

Exercise: // outcome(item) with item = COc1cc2c(cc1OC)C1Cc3ccc(OC)c(OC)c3CN1CC2 (stereo unspecified)
Key: inactive

Exercise: // outcome(item) with item = C[C@@H]1C(=O)OC2[C@H](O)C34[C@@H]5OC(=O)[C@@]3(O[C@@H]3OC(=O)[C@H](O)[C@@]34[C@H](C(C)(C)C)[C@H]5O)[C@]21O (stereo partly specified)
Key: inactive

Exercise: // outcome(item) with item = `COc1ccc([C@H]2Oc3cc(OC)cc(OC)c3C[C@H]2O)cc1`
Key: inactive

Exercise: // outcome(item) with item = COc1ccc2c(c1OC)C(=O)OC2[C@H]1c2c(cc3c(c2OC)OCO3)CCN1C (stereo partly specified)
Key: inactive

Exercise: // outcome(item) with item = `COC(=O)C[C@H]1C(C)(C)C(=O)[C@@H]2CC3=C(CC[C@]4(C)C3=CC(=O)O[C@H]4c3ccoc3)[C@@]1(C)C2=O`
Key: inactive

Exercise: // outcome(item) with item = `O=C(O)c1ccccc1-c1c2cc(Br)c(=O)cc-2oc2[c]([Hg])c(O)c(Br)cc12`
Key: inactive

Exercise: // outcome(item) with item = `CN1C(C(=O)Nc2ccccn2)=C(O)c2ccccc2S1(=O)=O`
Key: inactive

Exercise: // outcome(item) with item = COC(=O)[C@@H]1OC(=O)[C@H]2O[C@@]23[C@@]1(C)CCC1[C@@]2(C)CCC(=O)C(C)(C)C2C[C@@H](OC(C)=O)[C@]13C (stereo partly specified)
Key: inactive

Exercise: // outcome(item) with item = `Cc1c(Cl)cccc1Nc1ccccc1C(=O)O`
Key: active

Exercise: // outcome(item) with item = `C=C1C(=O)O[C@@H]2C[C@@]3(C)CCC[C@H](C)C3=C[C@H]12`
Key: active

Exercise: // outcome(item) with item = C=CC(N)CCC(=O)O (stereo unspecified)
Key: inactive

* * *

assay: chemical genetic growth profiling, strain panel (AID 1159580);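 also: tested at 20 µM; growth read once vehicle control cultures reached saturation at 30 °C; 1 = growth at the plate median or of vehicle wells; lower values mean less growth of the strain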; conditions: S. cerevisiae deletion strains, growth OD, locus YLR342W, strain FKS1, hits give low values
Out of some 5,500 compounds screened, about 2,000 (36%) were called active. About 18% were inconclusive and are not listed. This is one part of the list.
REPORTED_PROPERTY: normalized growth

Exercise: Data request, read-out normalized growth, for CCCCCCCCCCCCCCCC(=O)OC1C(SC)OC(C(NC(=O)C2CC(CCC)CN2C)C(C)Cl)C(O)C1O (centres undefined)
Key: 0.966 (inactive)

Exercise: Data request, read-out normalized growth, for CC(=O)OC1CCC2(C)C(=CC=C3C2CCC2(C)C3CCC2C(C)/C=C/C(C)C(C)C)C1(C)C (centres undefined)
Key: 1.02 (inactive)

Exercise: Data request, read-out normalized growth, for `COc1cc2occ(-c3ccccc3)c(=O)c2c(OC)c1C`
Key: 0.968 (inactive)

Exercise: Data request, read-out normalized growth, for `O=C1NC(=O)C(=O)C(=O)N1`
Key: 0.975 (inactive)

Exercise: Data request, read-out normalized growth, for `Cn1c(=O)c2[nH]cnc2n(C)c1=O`
Key: 1.02 (inactive)

Exercise: Data request, read-out normalized growth, for CC(C)C(C)/C=C/C(C)[C@H]1CCC2C3=CCC4CC(=O)CC[C@]4(C)C3CC[C@@]21C (some centres undefined)
Key: 1 (inactive)

Exercise: Data request, read-out normalized growth, for `O=C(O)CN(CC(=O)O)Cc1cc2c(-c3ccccc3C(=O)O)c3cc(CN(CC(=O)O)CC(=O)O)c(=O)cc-3oc2cc1O`
Key: 0.964 (inactive)

Exercise: Data request, read-out normalized growth, for `COc1ccc(-c2coc3cc(OC)cc(OC)c3c2=O)cc1`
Key: 0.994 (inactive)

Exercise: Data request, read-out normalized growth, for `CC[C@H](C)C(=O)O[C@H]1C[C@@H](C)C=C2C=C[C@H](C)[C@H](CC[C@@H]3C[C@@H](O)CC(=O)O3)[C@H]21`
Key: 1 (inactive)
